Ref: ChEMBL document CHEMBL1201861

Item-by-item account of pIC50
- Tested on: ES6;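 also: growth inhibition of human ES6 cells, read out with a cell viability assay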
- test_details: cells
- Format: functional, cell-based
- experimental_parameters: Homo sapiens
- Description: SANGER: Inhibition of human ES6 cell growth in a cell viability assay.
pIC50: −log10 of the molar value.

# query: pIC50 of entry NC(=O)Nc1cc(-c2cccc(F)c2)sc1C(=O)N[C@H]1CCCNC1 [AZD-7762]
6.35

Same read-out for C=CC(=O)N1CCCC(Nc2nc(Nc3ccc(N(C)C(=O)CC)cc3)nc3[nH]cnc23)C1 (stereo not given) ?
< 4.99

Then what about the compound C[C@@H](Oc1cc(-c2cnn(C3CCNCC3)c2)cnc1N)c1c(Cl)ccc(F)c1Cl [CRIZOTINIB] ?
< 5.70

Item: CN(C)CCOc1ccc(-c2nc(-c3ccncc3)c(-c3ccc4c(c3)CC/C4=N\O)[nH]2)cc1 [SB590885]
< 5.30
